test system: wheat; assay: Test C postemergence; format: in vivo, Triticum aestivum; conditions: Postemergence, 125 g ai/ha; 0 to 100 scale (0 no effect, 100 complete control), 10 days
quantityMeasured: Plant response rating, Wheat
Reply: number alone, nothing else.

// "COC[C@H]1CN(C(=O)c2cc(-n3cnc(C(C)(C)O)n3)ccc2OC)c2cccc(Cl)c2O1" : Plant response rating, Wheat value = 30

Measured Plant response rating, Wheat, Cc1cccc2c1OC(C(F)(F)F)CN2C(=O)c1ccnc(-n2cnc(C(C)C)n2)c1 (single isomer, unassigned) [Compound 328] : 30

Measured Plant response rating, Wheat, "CCOc1ncn(-c2cccc(C(=O)N3C[C@H](C)Oc4c(Cl)cccc43)c2)n1" : 10

The value of Plant response rating, Wheat measured for the compound CCOCC1CN(C(=O)c2cc(-n3cnc(C(C)(C)C)n3)ccc2OC)c2cccc(Cl)c2O1 (centres unmarked) turned out to be 10

According to the records, this compound "Cc1ncn(-c2cccc(C(=O)N3C[C@H](C)Oc4c(Cl)cccc43)c2)n1" displays Plant response rating, Wheat of 20

Value of Plant response rating, Wheat reported for the compound CC(C)c1ncn(-c2cc(C(=O)N3CC(C(F)(F)F)Oc4c(Cl)cccc43)ccn2)n1 (single isomer, unassigned) is 20

Summary for this compound, "COc1ncn(-c2cccc(C(=O)N3C[C@H](C)Oc4c(Cl)cccc43)c2)n1" : Plant response rating, Wheat is 10

Item: "CCc1cc(C(=O)N2C[C@H](C)Oc3c(Cl)cccc32)cc(-n2cncn2)c1" | Plant response rating, Wheat: 20
